Property: viability at 48 h, 25 µM; scope: individual molecules
# TEST METHOD NOTES: in vitro
# CONDITION CONTEXT: human, hek293t cells

MOLECULE	viability at 48 h, 25 µM
O=C(CCl)Nc1cc(C2CCCC2)nn1-c1ccccc1 [4-J03]	0.358%
Cc1nc(C)n(C2CCCN(C(=O)C(C)Cl)C2)n1 (stereo not shown) [7-P13]	92.3%
C=CC(=O)NCc1ccc(C(=O)N2CCN(c3nc(C)n[nH]3)CC2)cc1 [2-F22]	78.3%
Cc1cc(C)c(NC(=O)C(C#N)=Cc2ccc(C(C)(C)C)cc2)c(C)c1 [8-I13]	9.25%
C=CC(=O)Nc1cc2c(cc1Sc1ccccc1)OCCO2 [1-M13]	82.4%
CC(Cl)C(=O)Nc1cccc(C(F)(F)F)c1 (stereo not shown) [5-P14]	90.7%
CC(Cl)C(=O)NC1c2cc(F)ccc2CC1C (stereo not shown) [7-E16]	74.7%
O=C(CCl)NC(C1CC1)C1CC1 [6-C22]	66.4%
CC(Cl)C(=O)NC(c1ccccc1)c1ccccc1 (stereo not shown) [5-A21, 2-chloro-N-(diphenylmethyl)propanamide]	85.8%
Cc1ccc(C=C(C#N)C(=O)Nc2ccc(C(=O)O)cc2)s1 [8-E04]	91.5%

----------
# TEST METHOD NOTES: in vitro
# CONDITION CONTEXT: human, hek293t cells
viability at 48 h, 25 µM listing for selected compounds.

COMPOUND	UNIT ABBREV	viability at 48 h, 25 µM
C=CC(=O)N(C)Cc1cn(C)nc1C(C)C [3-F15]	%	80.7
Cc1cc(C=C(C#N)C(=O)NCc2ccccc2)c(C)n1C1CC1 [8-G14]	%	74
N#CC(=Cc1ccccc1)C(=O)NCc1ccc(F)cc1 [8-P10]	%	89
COc1ccc(-c2csc(NC(=O)CCl)n2)c(O)c1 [4-A11]	%	-0.257
N#CC(=Cc1cccc(F)c1F)C(N)=O [9-A03]	%	115
CNC(=O)c1cc(C(=O)CCl)cn1C [10-G10]	%	1.73
CC(Cl)C(=O)NC(C)(C(N)=O)c1cccc(Cl)c1 (centres unmarked) [5-J17]	%	125
O=C(CCl)NCc1ccccc1OC1CCCC1 [6-C14]	%	2.1
CC(Oc1cccc(F)c1F)C(=O)N1CCN(C(=O)CCl)CC1 (centres unmarked) [5-H03]	%	1.67
O=C(CCl)NC1CN(C(=O)C2CC2)C1 [6-P22]	%	112
COc1ccc(C=C(C#N)C(=O)Nc2cccc([N+](=O)[O-])c2)cc1 [8-I03]	%	105

----------
# TEST METHOD NOTES: in vitro
# CONDITION CONTEXT: human, hek293t cells
Doc: threshold 80% (exclusive). Items with viability at 48 h, 25 µM beneath it return met; others return not met.

MOLECULE	CLASS ASSIGNMENT
C=CC(=O)NCc1nnc(C2CCOCC2)[nH]1 [2-M22]	not met
COc1ccc(C=C(C#N)C(=O)NC2CCCCC2)cc1O [8-H13]	not met
NS(=O)(=O)c1cccc(N2C(=O)C=CC2=O)c1 [10-I05]	not met
O=C(CCl)N(c1ccccc1)C1CCCCC1 [4-L18, 2-chloro-N-cyclohexyl-N-phenylacetamide]	met

----------
# TEST METHOD NOTES: in vitro
# CONDITION CONTEXT: human, hek293t cells
READOUT: viability at 48 h, 25 µM (%)

MOLECULE	MEASURED RESULT
C=CC(=O)NCc1ccnn1C1CCCC1 [3-H21]	74.5
C=CC(=O)NCCc1ccccc1OC [2-O03]	105
C=CC(=O)NCc1oc(CC)nc1C [3-P15]	74.7
C=CC(=O)NCc1cnc(N2CCOCC2)s1 [1-M03]	86.3
O=C(CCl)Nc1cc(C2CC2)nn1-c1ccccc1 [4-I15]	1.44
N#CC(=Cc1cccs1)C(=O)Nc1cccc2ccccc12 [9-M22]	100
COc1cc(CNC(=O)C(C#N)=Cc2ccco2)c2ccccc2n1 [9-I05]	114
C=CC(=O)N(CC)CC(=O)N1CCCC(N2CCCS2(=O)=O)C1 (centres unmarked) [3-I08]	91.2
CC(Cl)C(=O)N[C@H](C)c1cnnn1C (some centres unmarked) [6-D13]	103
C=CC(=O)Nc1ccc(OC)c(COC)c1 [3-B06]	89.7
Cc1cc(C(=O)CCl)c(C)n1-c1ccc(C(C)(C)C)cc1 [10-N20]	0.606

----------
# TEST METHOD NOTES: in vitro
# CONDITION CONTEXT: human, hek293t cells
Catalogue of viability at 48 h, 25 µM readings, one per entry.

COMPOUND	viability at 48 h, 25 µM [%]
C=CC(=O)N1CCn2c(nnc2C(F)(F)F)C1	66.6
Cc1c(C=C(C#N)C(=O)NCc2ccccc2)cc(C#N)n1C	134
CC(Cl)C(=O)Nc1ncc(C(F)(F)F)cc1Cl (stereo not shown)	105
C=CC(=O)NCc1cn(C)c2ccccc12	107
COC(=O)c1cccc(C(=O)CCl)c1 [10-I11, methyl 3-(2-chloroacetyl)benzoate]	1.87
N#CC(=Cc1ccccc1Cl)C(=O)Nc1cccc2ncccc12	51
C=CC(=O)Nc1ccc(C(=O)NC2CCN(S(C)(=O)=O)CC2)cc1	90.2
COc1ccc(C=C(C#N)C(=O)Nc2nccs2)cc1O	85
COc1cc(S(=O)(=O)N2CCOCC2)ccc1NC(=O)CCl	0.942
C=CC(=O)NCc1ccc(S(=O)(=O)NC2CC2)cc1	62.3

----------
# TEST METHOD NOTES: in vitro
# CONDITION CONTEXT: human, hek293t cells
Threshold 80%: viability at 48 h, 25 µM strictly smaller gives criterion met, otherwise criterion not met.

COMPOUND	CLASS ASSIGNMENT
O=C(CCl)N(Cc1ccc2c(c1)CCO2)C1CCCC1 [6-L11]	criterion met
N#CC(=Cc1csc(C2CC2)n1)C(=O)Nc1ccccc1C(=O)O [9-C16]	criterion not met
Cc1nc2ccccc2n(CCCNC(=O)C(C)Cl)c1=O (stereo not shown) [7-O21]	criterion met
COc1ccc(S(N)(=O)=O)cc1NC(=O)CCl [6-O03]	criterion met
O=C(CCl)NC(c1ccccc1)c1ccccc1 [6-M12, 2-chloro-N-(diphenylmethyl)acetamide]	criterion met
N#CC(=Cc1ccc(-c2ccc(F)cc2)o1)C(=O)NC1CCCCC1 [9-H17]	criterion met
CC(Cl)C(=O)NC(c1cccc(C(F)(F)F)c1)c1nnc[nH]1 (stereo not shown) [7-M17]	criterion met
Cc1ccc(F)c(S(=O)(=O)NCCNC(=O)CCl)c1 [7-P12]	criterion met
C=CC(=O)NCc1ccc(C(=O)N2CCCC23CCOC3=O)cc1 (stereo not shown) [3-I06]	criterion not met

----------
# TEST METHOD NOTES: in vitro
# CONDITION CONTEXT: human, hek293t cells
Kindly note that classification relies on viability at 48 h, 25 µM with these boundaries: low range = under 10%, mid range = from 10% up to 80%, high range = 80% and over

COMPOUND	CLASS ASSIGNMENT
O=C(CCl)N1N=C(c2ccccc2)CC1c1ccc2nccnc2c1 (centres unmarked)	low range
C=CC(=O)NCCCn1ccnc1C#N	mid range
Cc1ccccc1N(CC(=O)N1CCCCC1)C(=O)C(C)Cl (centres unmarked)	mid range
C=CC(=O)NCc1ncoc1C(F)(F)F	high range
COc1ccc(Cc2cnc(NC(=O)CCl)s2)cc1	low range
O=C(CCl)N1C[C@@H]2C[C@H]1CN2c1ccccc1	low range
C=CC(=O)N1CCC(c2noc3cc(F)ccc23)CC1	mid range
CC(Cl)C(=O)NCCc1cnc2c(Cl)cnn2c1 (centres unmarked)	high range
CC(Cl)C(=O)N[C@H]1C[C@@H]1c1cnn(-c2ccccc2)c1 (mixture of isomers)	mid range
N#CC(=Cc1cccc(Cl)c1Cl)C(=O)NCc1ccccc1	mid range
Cc1nc(-c2cccc(NC(=O)CCl)c2)cs1	mid range

----------
# TEST METHOD NOTES: in vitro
# CONDITION CONTEXT: human, hek293t cells
# viability at 48 h, 25 µM listing for each entry below
READOUT: viability at 48 h, 25 µM (%)

COMPOUND	UNIT ABBREV	MEASURED RESULT
O=C(CCl)NCCS(=O)(=O)N1CCc2ccccc21	%	14.1
Cc1ncsc1C=C(C#N)C(=O)Nc1ccc(C(=O)N(C)C)cc1	%	118
CC(Cl)C(=O)N1CCCC1c1nccc(C(F)(F)F)n1 (centres unmarked)	%	106
C=CC(=O)Nc1ccccc1C(=O)N(C)C(C)C	%	66.9
C=CC(=O)NCc1ccc(C(=O)N2CCC[C@H]2C(=O)NC)cc1	%	80.6
Cc1cc(C(=O)CCl)c(C)n1-c1ccon1	%	1.56
C=CC(=O)N1CCC(c2ccc(OC)c(F)c2)C1 (centres unmarked)	%	48.9
O=C(CCl)c1ccc(O)cc1O	%	97.4
C=CC(=O)NC(C)(C)c1ccc(S(N)(=O)=O)cc1F	%	58.6
O=C(CCl)N(CCCO)C1CCCc2ccccc21 (centres unmarked)	%	0.693
C=CC(=O)N1CCC(C(=O)NCc2cc(=O)n3ccccc3n2)CC1	%	82.7

Origin of the recorded values: paper PMC11995724
